Values compiled from ChEMBL document CHEMBL1152153.

Here's a batch of compounds along with measured pIC50 for Sodium-dependent noradrenaline transporter (Homo sapiens).
Lab note: report pIC50 as minus log10 of the concentration in molar units, number only.

Below: 4 compounds and their reported pIC50.
>>> print(df.to_string())
                               given_smiles  recorded_value
0  CCn1c(=O)n([C@H](CCNC)c2ccccc2)c2ccccc21            7.36
1  CNCC[C@H](c1ccccc1)n1c(=O)n(C2CCCCC2)c2ccccc21            6.51
2  CNCC[C@H](c1ccccc1)n1c(=O)n(C(C)C)c2ccccc21            7.66
3  CCCn1c(=O)n([C@H](CCNC)c2ccccc2)c2ccccc21            7.49

Item: "CCCn1c(=O)n([C@@H](CCNC)c2ccccc2)c2ccccc21" Test system: Sodium-dependent noradrenaline transporter (Homo sapiens) Read-out: pIC50 Value: ? 6.20

* * *

Subject of test: Sodium-dependent dopamine transporter (Homo sapiens)
Test protocol: Displacement of [3H]WIN-35428 from human recombinant DAT expressed in CHO cells at 10 uM
Type: cell-based
Reported inhibition by item:
Report the figure in % without appending any unit label.

                               given_smiles  recorded_value
0  CNCC[C@H](c1ccccc1)n1c(=O)n(C2CCCCC2)c2ccccc21              24
1  CNCC[C@@H](c1ccccc1)n1c(=O)n(-c2ccccc2)c2ccccc21              23
2   CNCC[C@H](c1ccccc1)n1c(=O)n(C)c2ccccc21              12
3  CNCC[C@H](c1ccccc1)n1c(=O)n(C(C)C)c2ccccc21              11
4  CNCC[C@H](c1ccccc1)n1c(=O)n(C2CC2)c2ccccc21               7
5  CNCC[C@@H](c1ccccc1)n1c(=O)n(C(C)C)c2cccc(F)c21              31
6  CCCn1c(=O)n([C@@H](CCNC)c2ccccc2)c2ccccc21               5
7      CNCC[C@H](c1ccccc1)n1c(=O)sc2ccccc21              36

Item: "CNCC[C@H](c1ccccc1)n1c(=O)n(C2CCCC2)c2ccccc21" Test system: Sodium-dependent dopamine transporter (Homo sapiens) Read-out: inhibition Value: ? 22

Item: "CCn1c(=O)n([C@H](CCNC)c2ccccc2)c2ccccc21" Test system: Sodium-dependent dopamine transporter (Homo sapiens) Read-out: inhibition Value: ? 4

Item: "CNCC[C@H](c1ccccc1)n1c(=O)n(C(C)C)c2cccc(F)c21" Test system: Sodium-dependent dopamine transporter (Homo sapiens) Read-out: inhibition Value: ? 5

* * *

Species on record: Homo sapiens
Test protocol: Ratio of IC50 for human SERT to IC50 for human NET
Hi! Just check whether Ratio IC50 is below 100. Below gives met, equal or above gives not met.

>>> df
                                   compound  assigned_category
0  CNCC[C@H](c1ccccc1)n1c(=O)n(C(C)C)c2cccc(F)c21                met

Confirm or reject: Ratio IC50 of "CNCC[C@H](c1ccccc1)n1c(=O)n(C2CC2)c2ccccc21" lies strictly below 100 met

Confirm or reject: Ratio IC50 of "CNCC[C@H](c1ccccc1)n1c(=O)n(C(C)C)c2ccccc21" lies strictly below 100 not met

Confirm or reject: Ratio IC50 of "CNCC[C@H](c1ccccc1)n1c(=O)n(-c2ccccc2F)c2cccc(F)c21" lies strictly below 100 met

Confirm or reject: Ratio IC50 of "CNCC[C@H](c1ccccc1)n1c(=O)sc2ccccc21" lies strictly below 100 met

Confirm or reject: Ratio IC50 of CNCCC(c1ccccc1)n1ccc2ccccc21 (centres undefined) lies strictly below 100 met

Confirm or reject: Ratio IC50 of "CNCC[C@H](c1ccccc1)n1c(=O)n(-c2ccccc2)c2ccccc21" lies strictly below 100 not met

* * *

Subject of test: Sodium-dependent dopamine transporter (Homo sapiens) (UniProt Q01959)
Sequence (Q01959 whole entry): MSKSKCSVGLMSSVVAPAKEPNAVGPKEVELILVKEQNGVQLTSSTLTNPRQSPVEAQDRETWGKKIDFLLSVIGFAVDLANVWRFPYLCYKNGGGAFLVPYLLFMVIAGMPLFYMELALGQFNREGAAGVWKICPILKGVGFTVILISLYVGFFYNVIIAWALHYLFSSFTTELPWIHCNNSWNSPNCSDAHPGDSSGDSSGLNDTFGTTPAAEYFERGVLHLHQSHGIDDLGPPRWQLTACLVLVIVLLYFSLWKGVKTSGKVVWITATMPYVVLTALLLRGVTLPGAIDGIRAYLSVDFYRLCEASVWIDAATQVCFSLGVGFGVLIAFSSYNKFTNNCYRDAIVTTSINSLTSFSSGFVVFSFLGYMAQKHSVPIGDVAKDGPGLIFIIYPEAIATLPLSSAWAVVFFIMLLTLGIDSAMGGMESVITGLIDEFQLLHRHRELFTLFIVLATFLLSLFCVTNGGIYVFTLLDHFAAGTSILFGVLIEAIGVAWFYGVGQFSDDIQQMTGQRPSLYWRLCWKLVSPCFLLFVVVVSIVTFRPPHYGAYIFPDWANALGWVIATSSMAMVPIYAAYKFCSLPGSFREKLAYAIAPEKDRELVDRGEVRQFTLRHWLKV
Test protocol: Displacement of [3H]WIN-35428 from human recombinant DAT expressed in CHO cells at 10 uM
Type: cell-based
Metric: inhibition (%)
Report the figure in % without appending any unit label.

Below: 2 molecules and their reported inhibition.
>>> df
                               given_smiles      metric  recorded_value
0  CNCC[C@H](c1ccccc1)n1c(=O)n(-c2ccccc2)c2ccccc21  inhibition              33
1  CCn1c(=O)n([C@H](CCNC)c2cccc(F)c2)c2c(F)cccc21  inhibition              14

For the molecule "CCCn1c(=O)n([C@H](CCNC)c2ccccc2)c2ccccc21" , what inhibition is on record? 3

* * *

Subject of test: Sodium-dependent noradrenaline transporter (Homo sapiens)
Sequence (P23975 whole entry): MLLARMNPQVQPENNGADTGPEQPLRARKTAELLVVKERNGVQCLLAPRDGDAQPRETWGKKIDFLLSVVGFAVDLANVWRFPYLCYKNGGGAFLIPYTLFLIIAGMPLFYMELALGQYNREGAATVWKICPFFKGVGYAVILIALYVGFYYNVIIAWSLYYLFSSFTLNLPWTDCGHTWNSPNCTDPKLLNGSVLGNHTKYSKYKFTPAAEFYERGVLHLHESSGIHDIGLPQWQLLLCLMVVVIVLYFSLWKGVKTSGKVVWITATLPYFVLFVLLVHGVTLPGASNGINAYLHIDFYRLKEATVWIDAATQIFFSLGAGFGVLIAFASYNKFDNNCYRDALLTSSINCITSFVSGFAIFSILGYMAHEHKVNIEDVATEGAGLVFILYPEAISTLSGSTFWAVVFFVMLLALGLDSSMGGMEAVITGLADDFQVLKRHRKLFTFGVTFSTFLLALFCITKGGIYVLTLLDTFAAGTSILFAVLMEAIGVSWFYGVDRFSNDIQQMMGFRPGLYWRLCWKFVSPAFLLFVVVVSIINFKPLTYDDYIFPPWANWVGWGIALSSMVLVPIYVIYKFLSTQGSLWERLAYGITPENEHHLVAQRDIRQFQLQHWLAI
Test protocol: Inhibition of norepinephrine uptake at human NET expressed in MDCK-Net6 cells at 1 uM
Format: cell-based
Reported inhibition by item:
Report the figure in % without appending any unit label.

>>> df
                               given_smiles  unit_spec  recorded_value
0   CCn1c(=O)n([C@H](CCN)c2ccccc2)c2ccccc21          %              51
1  CNCC[C@@H](c1ccccc1)n1c(=O)n(C2CC2)c2ccccc21          %              25
2  CNCC[C@@H](c1ccccc1)n1c(=O)n(C(C)C)c2ccccc21          %              21
3  CC(C)n1c(=O)n([C@H](CCN(C)C)c2ccccc2)c2c(F)cccc21          %              27

Alright, here's another compound for you.
Item: "CCNCC[C@H](c1ccccc1)n1c(=O)n(CC)c2ccccc21" Test system: Sodium-dependent noradrenaline transporter (Homo sapiens) Read-out: inhibition Value: ? 27

* * *

Here's a batch of compounds along with measured IC50 for Sodium-dependent serotonin transporter (Homo sapiens, UniProt P31645).
Report the figure in µM without appending any unit label.

                               given_smiles  metric  recorded_value
0  CCn1c(=O)n([C@H](CCNC)c2ccccc2)c2ccccc21    IC50            4.31
1  CCCn1c(=O)n([C@H](CCNC)c2ccccc2)c2ccccc21    IC50             3.1
2  CNCC[C@H](c1ccccc1)n1c(=O)n(-c2ccccc2)c2ccccc21    IC50               3
3  CCCn1c(=O)n([C@@H](CCNC)c2ccccc2)c2ccccc21    IC50           0.166

Item: "CNCC[C@H](c1ccccc1)n1c(=O)n(C(C)C)c2cccc(F)c21" Test system: Sodium-dependent serotonin transporter (Homo sapiens, UniProt P31645) Read-out: IC50 Value: ? 1.21

Item: "CNCC[C@H](c1ccccc1)n1c(=O)sc2ccccc21" Test system: Sodium-dependent serotonin transporter (Homo sapiens, UniProt P31645) Read-out: IC50 Value: ? 1.91

* * *

Here's a batch of compounds along with measured IC50 for Sodium-dependent serotonin transporter (Homo sapiens, UniProt P31645).
Provide the measurement as a number trailed by its unit.

Below: 2 compounds and their reported IC50.
>>> print(df.to_string())
                               given_smiles                           subject_of_test  recorded_value
0  CNCC[C@H](c1ccccc1)n1c(=O)n(-c2ccccc2F)c2cccc(F)c21  Sodium-dependent serotonin transporter (Homo sapiens, UniProt P31645)          483 nM
1  CNCC[C@@H](c1ccccc1)n1c(=O)n(-c2ccccc2)c2ccccc21  Sodium-dependent serotonin transporter (Homo sapiens, UniProt P31645)          273 nM

For the compound "CNCC[C@@H](c1ccccc1)n1c(=O)n(C(C)C)c2cccc(F)c21" , what IC50 is on record? 1410 nM

For the compound "CNCC[C@H](c1ccccc1)n1c(=O)n(C2CC2)c2ccccc21" , what IC50 is on record? 4570 nM

* * *

Subject of test: Sodium-dependent serotonin transporter (Homo sapiens, UniProt P31645)
Test protocol: Inhibition of serotonin uptake at human SERT expressed in JAR cells at 1 uM
Format: cell-based
Sequence (P31645 whole entry, looked up): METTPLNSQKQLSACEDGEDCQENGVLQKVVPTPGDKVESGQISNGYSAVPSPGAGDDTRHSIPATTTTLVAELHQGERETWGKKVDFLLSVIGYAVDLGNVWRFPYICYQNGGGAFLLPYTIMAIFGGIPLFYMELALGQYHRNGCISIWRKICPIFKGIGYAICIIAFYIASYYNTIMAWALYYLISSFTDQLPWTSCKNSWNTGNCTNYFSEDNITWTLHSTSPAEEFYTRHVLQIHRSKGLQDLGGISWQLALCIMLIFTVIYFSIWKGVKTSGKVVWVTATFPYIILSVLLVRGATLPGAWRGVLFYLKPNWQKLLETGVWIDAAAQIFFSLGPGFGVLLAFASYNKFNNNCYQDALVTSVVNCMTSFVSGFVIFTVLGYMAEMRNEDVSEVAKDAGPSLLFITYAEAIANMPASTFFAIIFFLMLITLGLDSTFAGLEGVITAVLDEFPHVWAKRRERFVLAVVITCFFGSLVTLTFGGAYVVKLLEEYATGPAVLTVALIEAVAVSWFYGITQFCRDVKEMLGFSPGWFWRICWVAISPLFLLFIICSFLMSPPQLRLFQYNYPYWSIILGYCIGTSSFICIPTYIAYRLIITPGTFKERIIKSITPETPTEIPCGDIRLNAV
Metric: inhibition
Provide the measurement as a number trailed by its unit.

Below: 4 compounds and their reported inhibition.
>>> print(df.to_string())
                               given_smiles      metric  recorded_value
0  CNCC[C@H](c1ccccc1)n1c(=O)n(C2CCCCC2)c2ccccc21  inhibition             20%
1  CCn1c(=O)n([C@H](CCNC)c2cccc(F)c2)c2c(F)cccc21  inhibition             28%
2  CNCC[C@H](c1ccccc1)n1c(=O)n(C(C)C)c2ccccc21  inhibition              2%
3   CNCC[C@H](c1ccccc1)n1c(=O)n(C)c2ccccc21  inhibition             10%

Item: "CNCC[C@H](c1ccccc1)n1c(=O)n(C2CCCC2)c2ccccc21" Test system: Sodium-dependent serotonin transporter (Homo sapiens, UniProt P31645) Read-out: inhibition Value: ? 16%
